These measurements were taken from BigSolDB 2.1.

Conditions: in methanol, 283.15 K
TEST_READOUT: solubility (mole fraction)
Would you mind answering with just the numeric figure?

Data request: Endpoint output: solubility (mole fraction) of O=[N+]([O-])c1c(Cl)cc(Cl)c([N+](=O)[O-])c1Cl . Value?
Data returned: 0.00426

* * *

Conditions: in methyl acetate, 313.15 K
TEST_READOUT: solubility (mole fraction)
Form: value (number only, do not type unit).

Data request: I would be grateful if you could share the reported solubility (mole fraction) for O=[N+]([O-])c1c(Cl)cc(Cl)c([N+](=O)[O-])c1Cl .
Data returned: 0.173

* * *

Details: in methanol, 288.15 K
TEST_READOUT: solubility (mole fraction)
Would you mind answering with just the numeric figure?

Data request: Given the entry O=[N+]([O-])c1c(Cl)cc(Cl)c([N+](=O)[O-])c1Cl , report its measured solubility (mole fraction).
Data returned: 0.00698

* * *

Settings: in ethanol, 288.15 K
TEST_READOUT: solubility (mole fraction)
Output spec: single numeric token, no unit.

Data request: Need solubility (mole fraction), item O=[N+]([O-])c1c(Cl)cc(Cl)c([N+](=O)[O-])c1Cl
Data returned: 0.00539

* * *

Conditions: in tetrachloromethane, 283.15 K
TEST_READOUT: solubility (mole fraction)

Data request: # input compound: O=[N+]([O-])c1c(Cl)cc(Cl)c([N+](=O)[O-])c1Cl ; wanted: its solubility (mole fraction)
Data returned: 0.0185

* * *

Settings: in n-butanol, 298.15 K
TEST_READOUT: solubility (mole fraction)
Keep the answer to the number alone.

Data request: Data request, read-out solubility (mole fraction), for O=[N+]([O-])c1c(Cl)cc(Cl)c([N+](=O)[O-])c1Cl
Data returned: 0.00906

* * *

Conditions: in methyl acetate, 303.15 K
TEST_READOUT: solubility (mole fraction)

Data request: Sample O=[N+]([O-])c1c(Cl)cc(Cl)c([N+](=O)[O-])c1Cl — what was its solubility (mole fraction)?
Data returned: 0.14

* * *

Conditions: in acetonitrile, 288.15 K
TEST_READOUT: solubility (mole fraction)
# answer = number (no unit)

Data request: I have this compound here, O=[N+]([O-])c1c(Cl)cc(Cl)c([N+](=O)[O-])c1Cl , and I need its recorded solubility (mole fraction).
Data returned: 0.0313

* * *

Conditions: in dichloromethane, 311.15 K
TEST_READOUT: solubility (mole fraction)
Please reply with the value in numeric form only.

Data request: Please look up its solubility (mole fraction): O=[N+]([O-])c1c(Cl)cc(Cl)c([N+](=O)[O-])c1Cl
Data returned: 0.147

* * *

Settings: in methanol, 308.15 K
TEST_READOUT: solubility (mole fraction)
I'd appreciate a reply containing only the number, no unit.

Data request: If you can, please state the reported solubility (mole fraction) value of O=[N+]([O-])c1c(Cl)cc(Cl)c([N+](=O)[O-])c1Cl .
Data returned: 0.0718

* * *

Conditions: in chloroform, 293.15 K
TEST_READOUT: solubility (mole fraction)
# answer = number (no unit)

Data request: Endpoint output: solubility (mole fraction) of O=[N+]([O-])c1c(Cl)cc(Cl)c([N+](=O)[O-])c1Cl . Value?
Data returned: 0.11

* * *

Conditions: in n-propanol, 308.15 K
TEST_READOUT: solubility (mole fraction)
No unit in the answer, please; the number alone is enough.

Data request: Which solubility (mole fraction) value is on record for O=[N+]([O-])c1c(Cl)cc(Cl)c([N+](=O)[O-])c1Cl ?
Data returned: 0.0109
